Assay overview: Antagonist activity at New Zealand rabbit endothelin A/B2 receptor assessed as dilation of endothelin-1 induced basilary artery contraction measured after 20 mins
Set-up: species or system Oryctolagus cuniculus
Recorded metric: EC50 (nM)

> print(dat)
                                 mol.smiles  assay.value
1  COc1ccccc1Oc1c(NS(=O)(=O)c2ccc(C(C)(C)C)cc2)nc(-c2ncccn2)nc1OCCO          530

This collection of values is drawn from ChEMBL document CHEMBL4043113.
